test: qHTS for Inhibitors of TGF-b; conditions: HepG2 CAGA-GFP TGF-b/SMAD3 reporter, GFP fluorescence, 18 h, TGF-beta stimulated, 500 pg/mL final; series mostly up to 46.1 µM; note: nearly all actives have a fitted effect of over 65% in size
Hit rate of the full screen: of about 410,000 compounds, about 5,000 (1.2%) were called active. About 13% were inconclusive and are not listed. Calls come from the whole dose curve; as a rule, active = well fitted inhibition curve with a large enough effect; inconclusive = small, poorly fitted or top-dose-only effect; inactive = no such curve, though single readings can be large or run the other way. For the sample, actives were picked, then their nearest neighbours and some compounds at random.
Hi! Could you answer with just one of these? active, inactive

Solved cases (4 shown):
Compound	Label Value
CC(=O)c1ccc(Nc2nc(C(N)c3ccccc3)cs2)cc1 (stereo not given)	inactive
NC(c1csc(NC(=O)Nc2cccc(C(F)(F)F)c2)n1)C1CCCCC1 (stereo not given)	active
CCOC(=O)Nc1ccc2c(c1)N(C(=O)CN1CCN3CCCC3C1)c1ccccc1CC2 (stereo not given)	inactive
CCOC(=O)Nc1ccc2c(c1)N(C(=O)CCCl)c1ccccc1[S@]2=O	active

Attention now turns to another entry.
Enquiry: How was NC(c1ccccc1)c1csc(NC(=O)Nc2cccc(C(F)(F)F)c2)n1 (stereo not given) classified in this test?
Return: active

====

experiment: qHTS for Inhibitors of TGF-b; conditions: HepG2 CAGA-GFP TGF-b/SMAD3 reporter, GFP fluorescence, 18 h, TGF-beta stimulated, 500 pg/mL final; series mostly up to 46.1 µM; note: nearly all actives have a fitted effect of over 65% in size; note: potency is the fitted concentration of half-maximal effect
In all, about 410,000 compounds went through this assay and about 5,000 (1.2%) were called active. Not shown: some 13% with an inconclusive outcome. Many of the other results were omitted from the sample, so actives are more common in it than they were.
Measurement Type: Potency

Compound	Measurement Type	Observed Result
O=C(Nc1ccccc1F)C(c1ccccc1)N1Cc2ccccc2C1=O (configuration not stated)	Potency	inactive
CC1CC(C)CN(c2oc(-c3ccc(OCc4ccc(Cl)cc4)cc3)nc2C#N)C1 (configuration not stated)	Potency	inactive
CCN(c1ncnc2c1cnn2-c1ccc(C)cc1)C1CCCCC1	Potency	inactive
Cc1ccn2c(-c3csc(Nc4ccc(C(=O)O)cc4)n3)c(C)nc2c1	Potency	inactive

The value of Potency measured for the compound Cc1ccc(CNC(=O)C2(C(F)(F)F)C/C(=C\CCO)CCCO2)o1 (configuration not stated) turned out to be inactive

The value of Potency measured for the compound CCOC(=O)c1ccc(NC(=O)Cn2c(=O)n(-c3ccc(C)cc3)c(=O)c3c2cnn3C)cc1 turned out to be inactive

The value of Potency measured for the compound CCOc1ccc(NC(=O)CN(Cc2ccccc2)S(=O)(=O)c2ccc(Cl)cc2)cc1 turned out to be inactive

The value of Potency measured for the compound COc1cccc(CNC(=O)CCC(=O)N2CC3CCCN3c3ccccc32)c1 (configuration not stated) turned out to be inactive

The value of Potency measured for the compound CCN(C(=O)Cn1cnc2sc(C)c(S(=O)(=O)N3CCN(c4ncccn4)CC3)c2c1=O)c1ccccc1F turned out to be inactive

The value of Potency measured for the compound CCCOc1ccc(-c2cccc(NS(=O)(=O)c3ccccc3)c2)nn1 turned out to be 10 µM (active)

====

assay: qHTS for Inhibitors of TGF-b; conditions: HepG2 CAGA-GFP TGF-b/SMAD3 reporter, GFP fluorescence, 18 h, TGF-beta stimulated, 500 pg/mL final; series mostly up to 46.1 µM; note: nearly all actives have a fitted effect of over 65% in size
Among all 410,000 compounds or so, about 5,000 (1.2%) were called active. About 13% were inconclusive and are not listed. Calls come from the whole dose curve; as a rule, active = well fitted inhibition curve with a large enough effect; inconclusive = small, poorly fitted or top-dose-only effect; inactive = no such curve, though single readings can be large or run the other way. Many of the other results were omitted from the sample, so actives are more common in it than they were.
Hi! Could you answer with just one of these? Y = active, N = inactive

Compound	Label Value
COC(=O)c1cc(Oc2ccc(S(=O)(=O)N3CCOCC3)cc2[N+](=O)[O-])cc(C(=O)OC)c1	N
COc1ccc(CN2CCC(=O)c3ccccc3S2(=O)=O)cc1	N
CCCCS(=O)(=O)c1oc(-c2cccs2)nc1S(=O)(=O)c1ccccc1	Y

Enquiry: How was N/C(=N\S(=O)(=O)c1cc(C(F)(F)F)cc(C(F)(F)F)c1)c1cccs1 classified in this test?
Return: Y

Enquiry: How was Cc1ccc(S(=O)(=O)c2nc(-c3cccs3)oc2NCc2cccnc2)cc1 classified in this test?
Return: N

Enquiry: How was N=C1C(c2nc3ccccc3[nH]2)=C(O)CN1NC(=O)c1c[nH]c2ccccc12 classified in this test?
Return: N

Enquiry: How was O=C(c1ccco1)N(Cc1cccs1)c1ccc(O)cc1 classified in this test?
Return: N

Enquiry: How was CCOc1ccc(CCNC(=O)Cn2nc(CC)n3c(cc4sc(CC)cc43)c2=O)cc1OCC classified in this test?
Return: N

Enquiry: How was CCc1ccc(NC(=O)N2CCN(C(=O)c3nsc4ccccc34)CC2)cc1 classified in this test?
Return: N

Enquiry: How was CN(CCC#N)c1ccc(C=O)cc1 classified in this test?
Return: N

Enquiry: How was CCOC(=O)c1ccc(NC(=O)c2c(NCc3cccs3)sc3c2CCCC3)cc1 classified in this test?
Return: N

Enquiry: How was O=C(O)c1ccc(Nc2nc(-c3ccccc3)c3cc(Br)ccc3n2)cc1 classified in this test?
Return: N

Enquiry: How was COc1ccc(C(F)(F)F)cc1NC(=O)c1sc2nc(-c3cccs3)ccc2c1N classified in this test?
Return: N

Hey, just so you know, these numbers are from PubChem BioAssay AID588855.
